- Test system: F1 hybrid maize plants
- METHOD NOTES: efficacy field trial for 2,4-D tolerance
- Assay type: in vivo
- MEASUREMENT CONTEXT: scale 0 to 100; 2 lb ae/acre at VE-V2, V4, V8; with CTP unless label says no CTP
- Protocol: Separate trait efficacy field trials for quizalofop-P and 2,4-D were conducted at two locations cach with F1 hybrid transgenic plants produced by crossing an inbred plant containing maize event MON89034 with an R1 plant containing MON-HT55 (with a CTP), MON-HTI (with or without a CTP), MON-HT2 (with or without a CTP), MON-HT3 (with a CTP), MON-HT4 (with a CTP), MON-HT5 (with a CTP), MON-HT6 (with a CTP), or MON-HT7 (with a CTP). […]
QUANTITY MEASURED: average injury rating, V8 Growth Stage, 2x 2,4-D

>>> reported_value("MON-HT1: engineered oxygenase protein, amino acid sequence SEQ ID NO:14 (protein) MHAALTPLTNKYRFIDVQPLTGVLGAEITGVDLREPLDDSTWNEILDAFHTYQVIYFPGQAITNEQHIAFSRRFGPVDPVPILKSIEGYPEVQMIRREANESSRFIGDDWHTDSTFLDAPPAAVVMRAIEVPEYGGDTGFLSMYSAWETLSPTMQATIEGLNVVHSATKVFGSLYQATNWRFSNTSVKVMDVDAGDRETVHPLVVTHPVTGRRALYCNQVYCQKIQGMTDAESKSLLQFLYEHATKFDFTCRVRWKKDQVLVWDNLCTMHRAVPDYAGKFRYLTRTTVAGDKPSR")
1.3

Source: patent US12723255B2
